- Tested on: soybean (Glysine max)
- assay overview: Herbicidal effect test by soil treatment
- Type: in vivo
- measurement setup: crop plant, application amount 1.6 g/a, three weeks after spraying
Reported herbicidal effect, S (Glysine max) values follow for various compounds

C#CCN1C(=O)COc2cc(F)c(N3C(=O)CC(C)CC3=O)cc21 : 2 (Growth control rates of 20 to 40%)
CC(C)OC(=O)c1cc(N2C(=O)CC(C(F)(F)F)C(C)C2=O)c(F)cc1Cl (stereo not drawn) : 2 (Growth control rates of 20 to 40%)
O=C1COc2cc(F)c(N3C(=O)CC(C(F)(F)F)CC3=O)cc2N1Cc1ccccc1 : 1 (Growth control rates of 5 to 20%)

[Q] Which herbicidal effect, S (Glysine max) is listed for C#CCN1C(=O)COc2cc(F)c(N3C(=O)CC(C(F)(F)F)CC3=O)cc21 ?
[A] 4 (Growth control rates of 70 to 90%)
